List of Imax (%) values.
TGT: p-EGFR Del19/C797S (H1975-clone #23 cells) (Homo sapiens)
ASSAY_PROTOCOL: Cell p-EGFR inhibition assay, HTRF, H1975-clone#23 (DEL19/C797S) cells
Type: cell-based
CONDITION_DESCRIPTION: 16 h treatment, maximum percentage of pEGFR inhibition

{"columns": ["MOLECULE", "TGT", "Imax (%)"],
 "data": [
  ["Cc1cc2cc(n1)-c1c(C)nn(C)c1OC[C@H]1CCC(C1)CN1/C(=N/C2=O)Nc2ccc(N3CCN(C4CCN(c5cc(F)c([C@H]6CCC(=O)NC6=O)c(F)c5)CC4)[C@@H](C)C3)cc21 [Example 135]", "p-EGFR Del19/C797S (H1975-clone #23 cells) (Homo sapiens)", 104.78],
  ["Cc1cc2cc(n1)-c1c(C)nn(C)c1OC[C@H]1CCC(C1)CN1/C(=N/C2=O)Nc2ccc(N3CCC(N(C)C4CCN(c5cc(F)c([C@H]6CCC(=O)NC6=O)c(F)c5)CC4)CC3)cc21 [Example 136]", "p-EGFR Del19/C797S (H1975-clone #23 cells) (Homo sapiens)", 103.49],
  ["COC[C@@H]1CN(c2ccc3c(c2)N2CC4CC[C@H](COc5c(c(C)nn5C)-c5cc(cc(C)n5)C(=O)/N=C/2N3)C4)CCN1C1CCN(c2cc(F)c([C@H]3CCC(=O)NC3=O)c(F)c2)CC1 [Example 80]", "p-EGFR Del19/C797S (H1975-clone #23 cells) (Homo sapiens)", 99.9],
  ["Cc1cc2cc(n1)-c1cnn(C)c1OC[C@H]1CCC(C1)CN1/C(=N/C2=O)Nc2cc(F)c(N3CCN(C4CCN(c5cnc(C6CCC(=O)NC6=O)cc5C)CC4)CC3)cc21 (stereo partly shown) [Example 100]", "p-EGFR Del19/C797S (H1975-clone #23 cells) (Homo sapiens)", 101],
  ["Cc1cc2cc(n1)-c1cnn(C)c1OC[C@H]1CC[C@H](C1)CN1/C(=N/C2=O)Nc2ccc(N3CCC(N4CC(Nc5cc(F)c([C@H]6CCC(=O)NC6=O)c(F)c5)C4)CC3)cc21 [Example 112]", "p-EGFR Del19/C797S (H1975-clone #23 cells) (Homo sapiens)", 98.9],
  ["Cc1cc2cc(n1)-c1cnn(C)c1OC[C@H]1CCC(C1)CN1/C(=N/C2=O)Nc2ccc(N3CCN(C4CCN(c5c(F)cc(OC6CCC(=O)NC6=O)cc5F)CC4)CC3)cc21 (stereo partly shown) [Example 111]", "p-EGFR Del19/C797S (H1975-clone #23 cells) (Homo sapiens)", 100.1],
  ["COC[C@@H]1CN(c2ccc3c(c2)N2CC4CC[C@H](COc5c(c(C(F)F)nn5C)-c5cc(cc(C)n5)C(=O)/N=C/2N3)C4)CCN1C1CCN(c2cc(F)c([C@H]3CCC(=O)NC3=O)c(F)c2)CC1 [Example 85]", "p-EGFR Del19/C797S (H1975-clone #23 cells) (Homo sapiens)", 99.7],
  ["Cc1cc2cc(n1)-c1cnn(C)c1OC[C@H]1CCC(C1)CN1/C(=N/C2=O)Nc2ccc(N3CCN([C@@H]4CCN(c5ccc(C6CCC(=O)NC6=O)nc5C)CC4(F)F)CC3)cc21 (stereo partly shown) [Example 105]", "p-EGFR Del19/C797S (H1975-clone #23 cells) (Homo sapiens)", 100.1],
  ["Cc1cc2cc(n1)-c1cnn(C)c1OC[C@H]1CCC(C1)CN1/C(=N/C2=O)Nc2ccc(N3CCN([C@H]4CCN(c5ccc(C6CCC(=O)NC6=O)nc5C)CC4(F)F)CC3)cc21 (stereo partly shown) [Example 83]", "p-EGFR Del19/C797S (H1975-clone #23 cells) (Homo sapiens)", 100.7],
  ["Cc1cc2cc(n1)-c1c(C)nn(C)c1OC[C@H]1CC[C@H](C1)CN1/C(=N/C2=O)Nc2ccc(N3CCN(C4CCN(c5cc(F)c([C@H]6CCC(=O)NC6=O)c(F)c5)CC4)[C@H](C)C3)cc21 [Example 192]", "p-EGFR Del19/C797S (H1975-clone #23 cells) (Homo sapiens)", 99.96]
]}

----------
TGT: EGFR-L858R/C797S (H1975-clone #8 cells) (Homo sapiens, UniProt P00533, C797S/L858R)
Construct: expressed in transfected cells; host or cells: H1975 (endogenous EGFR knocked out, clone #8)
ASSAY_PROTOCOL: Cell degradation of EGFR, HTRF assay, H1975-clone#8 (L858R/C797S) cells
Assay type: cell-based
CONDITION_DESCRIPTION: 16 h treatment, EGFR degradation
List of DC50 values.

{"columns": ["COMPOUND", "UNITS_LABEL", "DC50"],
 "data": [
  ["Cc1cc2cc(n1)-c1c(C)nn(C)c1OC[C@H]1CC[C@H](C1)CN1/C(=N/C2=O)Nc2ccc(N3C[C@H](C)N(C4CCN(c5cc(F)c([C@H]6CCC(=O)NC6=O)c(F)c5)CC4)C[C@H]3C)cc21 [Example 191]", "nM", 0.73],
  ["Cc1cc2cc(n1)-c1c(C)nn(C)c1OC[C@H]1CC[C@H](C1)CN1/C(=N/C2=O)Nc2ccc(N3CCC(NC4CN(c5c(F)cc(OC6CCC(=O)NC6=O)cc5F)C4)CC3)cc21 (stereo partly drawn) [Example 158]", "nM", 4.39],
  ["Cc1cc2cc(n1)-c1cnn(C)c1OC[C@H]1CCC(C1)CN1/C(=N/C2=O)Nc2ccc(N3CCN(C4CCN(c5cc(F)c(C6CCC(=O)NC6=O)c(F)c5)CC4)[C@@H](C)C3)cc21 (stereo partly drawn) [Example 119]", "nM", 2.3]
]}

----------
TGT: p-EGFR Del19/C797S (H1975-clone #23 cells) (Homo sapiens)
ASSAY_PROTOCOL: Cell p-EGFR inhibition assay, HTRF, H1975-clone#23 (DEL19/C797S) cells
Type: cell-based
CONDITION_DESCRIPTION: 16 h treatment, maximum percentage of pEGFR inhibition
Method: The EGFR over-expressed cells then underwent knockout, in which the EGFR targeting sgRNA was designed to only target the endogenous EGFR copies and preserve the exogenous EGFR copies. Followed by the knockout, the edited H1975 cells were seeded in 96 well plates at the concentration of 1 cell/well, cultured for about 2 weeks to allow single clones formation. […] High control=Cell group with added DMSO and without compound, indicating microplate readings without p-EGFR inhibited. […]
ASSAY_ENDPOINT: Imax (%)

{"columns": ["COMPOUND", "TGT", "REPORTED_RESULT"],
 "data": [
  ["CCc1nn(C)c2c1-c1cc(cc(C)n1)C(=O)/N=C1\\Nc3ccc(N4CCN(C5CCN(c6cc(F)c([C@H]7CCC(=O)NC7=O)c(F)c6)CC5)[C@@H](COC)C4)cc3N1C[C@@H]1CC[C@H](CO2)C1", "p-EGFR Del19/C797S (H1975-clone #23 cells) (Homo sapiens)", 100.72],
  ["COC[C@@H]1CN(c2ccc3c(c2)N2CC4CC[C@H](COc5c(cnn5C)-c5cc(cc(C)n5)C(=O)/N=C/2N3)C4)CCN1C1CCN(c2cc(F)c(C3CCC(=O)NC3=O)nc2C)CC1 (stereo partly drawn)", "p-EGFR Del19/C797S (H1975-clone #23 cells) (Homo sapiens)", 99.2],
  ["Cc1cc2cc(n1)-c1c(C)nn(C)c1OC[C@H]1CC[C@H](C1)CN1/C(=N/C2=O)Nc2ccc(N3CCC(N(C)C4CN(c5cc(F)c([C@H]6CCC(=O)NC6=O)c(F)c5)C4)CC3)cc21", "p-EGFR Del19/C797S (H1975-clone #23 cells) (Homo sapiens)", 102.03],
  ["Cc1cc2cc(n1)-c1c(C)nn(C)c1OC[C@H]1CC[C@H](C1)CN1/C(=N/C2=O)Nc2ccc(N3CCC(N4CCC(Nc5cc(F)c([C@H]6CCC(=O)NC6=O)c(F)c5)CC4)CC3)cc21 (single isomer, unassigned)", "p-EGFR Del19/C797S (H1975-clone #23 cells) (Homo sapiens)", 98.77],
  ["COC[C@@H]1CN(c2ccc3c(c2)N2CC4CC[C@H](COc5c(c(C)nn5C)-c5cc(cc(C)n5)C(=O)/N=C/2N3)C4)CCN1CC1CCN(c2cc(F)c([C@H]3CCC(=O)NC3=O)c(F)c2)CC1", "p-EGFR Del19/C797S (H1975-clone #23 cells) (Homo sapiens)", 100.85],
  ["Cc1cc2cc(n1)-c1c(C)nn(C)c1OC[C@H]1CC[C@H](C1)CN1/C(=N/C2=O)Nc2ccc(N3C[C@H](C)N(C4CCN(c5cc(F)c([C@H]6CCC(=O)NC6=O)c(F)c5)CC4)C[C@@H]3C)cc21", "p-EGFR Del19/C797S (H1975-clone #23 cells) (Homo sapiens)", 103.49],
  ["Cc1cc2cc(n1)-c1cnn(C)c1OC[C@H]1CCC(C1)CN1/C(=N/C2=O)Nc2ccc(N3CCN(C4CCN(c5cc(F)c([C@H]6CCC(=O)NC6=O)c(F)c5)CC4)[C@@H](CO)C3)cc21", "p-EGFR Del19/C797S (H1975-clone #23 cells) (Homo sapiens)", 101.1],
  ["Cc1cc2cc(n1)-c1c(C)nn(C)c1OC[C@H]1CC[C@H](C1)CN1/C(=N/C2=O)Nc2ccc(N3CCN(CC4CN(c5cc(F)c([C@H]6CCC(=O)NC6=O)c(F)c5)C4)[C@H](C(F)F)C3)cc21", "p-EGFR Del19/C797S (H1975-clone #23 cells) (Homo sapiens)", 99.83],
  ["Cc1cc2cc(n1)-c1cnn(C)c1OC[C@H]1CCC(C1)CN1/C(=N/C2=O)Nc2ccc(N3CC4(CCN(C5CN(c6cc(F)c([C@H]7CCC(=O)NC7=O)c(F)c6)C5)CC4)C3)cc21", "p-EGFR Del19/C797S (H1975-clone #23 cells) (Homo sapiens)", 102.92],
  ["Cc1cc2cc(n1)-c1c(C)nn(C)c1OC[C@H]1CC[C@H](C1)CN1/C(=N/C2=O)Nc2ccc(N3CCN([C@H]4CCN(c5cnc(C6CCC(=O)NC6=O)cc5C)CC4(F)F)CC3)cc21 (stereo partly drawn)", "p-EGFR Del19/C797S (H1975-clone #23 cells) (Homo sapiens)", 101],
  ["Cc1cc2cc(n1)-c1cnn(C)c1OC[C@H]1CC[C@H](C1)CN1/C(=N/C2=O)Nc2ccc(N3CCN(C4CCN(c5ccc(OC6CCC(=O)NC6=O)nc5C)CC4)CC3)cc21 (stereo partly drawn)", "p-EGFR Del19/C797S (H1975-clone #23 cells) (Homo sapiens)", 98.8],
  ["COC[C@@H]1CN(c2ccc3c(c2)N2C[C@@H]4CC[C@H](COc5c(c(C)nn5CCO)-c5cc(cc(C)n5)C(=O)/N=C/2N3)C4)CCN1C1CCN(c2cc(F)c([C@H]3CCC(=O)NC3=O)c(F)c2)CC1", "p-EGFR Del19/C797S (H1975-clone #23 cells) (Homo sapiens)", 100.52],
  ["Cc1cc2cc(n1)-c1c(C)nn(C)c1OC[C@H]1CC[C@H](C1)CN1/C(=N/C2=O)Nc2ccc(N3[C@@H](C)CN(C4CCN(c5cc(F)c([C@H]6CCC(=O)NC6=O)c(F)c5)CC4)C[C@@H]3C)cc21", "p-EGFR Del19/C797S (H1975-clone #23 cells) (Homo sapiens)", 102.48],
  ["Cc1cc2cc(n1)-c1cnn(C)c1OC[C@H]1CCC(C1)CN1/C(=N/C2=O)Nc2ccc(N3CCN(C4CCN(c5ccc(NC6CCC(=O)NC6=O)cc5C)CC4)CC3)cc21 (stereo partly drawn)", "p-EGFR Del19/C797S (H1975-clone #23 cells) (Homo sapiens)", 100.4],
  ["Cc1cc2cc(n1)-c1cnn(C)c1OC[C@H]1CCC(C1)CN1/C(=N/C2=O)Nc2ccc(N3CCN([C@H]4CCN(c5ccc(C6CCC(=O)NC6=O)nc5C)C[C@@H]4F)CC3)cc21 (stereo partly drawn)", "p-EGFR Del19/C797S (H1975-clone #23 cells) (Homo sapiens)", 101],
  ["COC[C@H]1CN(c2ccc3c(c2)N2CC4CC[C@H](COc5c(c(C(F)F)nn5C)-c5cc(cc(C)n5)C(=O)/N=C/2N3)C4)CCN1C1CCN(c2cc(F)c([C@H]3CCC(=O)NC3=O)c(F)c2)CC1", "p-EGFR Del19/C797S (H1975-clone #23 cells) (Homo sapiens)", 100.5],
  ["Cc1cc2cc(n1)-c1cnn(CCO)c1OC[C@H]1CCC(C1)CN1/C(=N/C2=O)Nc2ccc(N3CCN(C4CCN(c5cc(F)c([C@H]6CCC(=O)NC6=O)c(F)c5)CC4)CC3)cc21", "p-EGFR Del19/C797S (H1975-clone #23 cells) (Homo sapiens)", 98.9],
  ["Cc1cc2cc(n1)-c1cnn(C)c1OC[C@H]1CCC(C1)CN1/C(=N/C2=O)Nc2ccc(N3CCN(C4CCN(c5cc(F)c(C6CCC(=O)NC6=O)c(F)c5)CC4)[C@@H](C)C3)cc21 (stereo partly drawn)", "p-EGFR Del19/C797S (H1975-clone #23 cells) (Homo sapiens)", 100.8]
]}
